Biological target: T1, human BMP9 (BMP9/Growth Differentiation Factor 2 [Homo sapiens], NP_057288) (human, UniProt Q9UK05 320-429, limits assumed)
T1 construct: cell assays use 'recombinant human BMP9 complex'; also called huBMP9; hBMP9
T1 sequence: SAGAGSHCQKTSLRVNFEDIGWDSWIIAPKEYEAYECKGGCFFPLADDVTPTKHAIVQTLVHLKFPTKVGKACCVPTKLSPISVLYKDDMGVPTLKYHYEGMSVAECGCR
Experiment: MSD-SET solution equilibrium titration
QUANTITY_MEASURED: log10 Kd (log10 of the value in nM)

binder="Antibody BMP9-4: AM4405 (antibody, human IgG1, kappa, V domains shown, also called 2B11G2-AM4405) VH: QVQLVQSGAEVKKPGASVKVSCKASGYTFRSYNMHWVRQAPGQGLEWMGLIYPGNAVTSYSQKFKDRVTMTVDKSTSTAYMELSSLRSEDTAVYYCAKDDYFRGGSYAMDYWGQGTTVTVSS VL: EIVLTQSPDFQSVTPKEKVTITCRASQSIRNNLHWYQQKPDQSPKLLIKYASQSIRGVPSRFSGSGSGTDFTLTINSLEAEDAATYYCQQSHSWPYTFGGGTKVEIKR" quantity_measured="log10 Kd" endpoint_result=-1.74
binder="Antibody BMP9-2: MOR022962 (antibody, human IgG1, kappa, V domains shown) VH: QVQLLESGGGLVQPGGSLRLSCAASGFTFSSYAMSWVRQAPGKGLEWVSITLGTGHTHYADSVKGRFTISRDNSKNTLYLQMNSLRAEDTAVYYCARGSYIIWSALDYWGQGTLVTVSS VL: DIQMTQSPSSLSASVGDRVTITCRASQDIRSYLNWYQQKPGKAPKLLIYDASNLQSGVPSRFSGSGSGTDFTLTISSLQPEDFATYYCQQSDTSPLTFGQGTKVEIKR" quantity_measured="log10 Kd" endpoint_result=-1.92
binder="Antibody BMP9-1: AM0100 (antibody, human IgG1, kappa, V domains shown, also called 4E10D7-AM0100) VH: QVQLVQSGAEVKKPGASVKVSCKASGYTFTRYWMHWVRQAPGQGLEWMGEINPSQGGTNYNEKFKSRVTMTVDKSISTAYMELSRLRSDDTAVYYCAIGSNYGGLVYWGQGTLVTVSS VL: EIVLTQSPATLSLSPGERATLSCRASESLDNYGISFMNWFQQKPGQAPRFLIYAASNQGSGIPARFSGSGSGTDFTLTISSLQPEDTAVYFCQQSKEVPRTFGGGTKVEIKR" quantity_measured="log10 Kd" endpoint_result=-0.74
binder="Antibody BMP9-3: MOR023795 (antibody, human IgG1, lambda, V domains shown, Fully human, phage display) VH: EVQLVQSGAEVKKPGESLKISCKGSGYSFTTYWIGWVRQMPGKGLEWMGIIYPEGSYTTYSPSFQGQVTISADKSISTAYLQWSSLKASDTAMYYCARGKRVDASSFDYWGQGTLVTVSS VL: QSVLTQPPSVSGAPGQRVTISCSGSSSNIGDNYVSWYQQLPGTAPKLLIYRNNKRPSGVPDRFSGSKSGTSASLAITGLQAEDEADYYCSSTDKEHLVFGGGTKLTVLG" quantity_measured="log10 Kd" endpoint_result=-0.54
binder="Antibody BMP9-6: MOR022965 (antibody, human IgG1, kappa, V domains shown, Fully human, phage display) VH: QVQLVQSGAEVKKPGSSVKVSCKASGGTFSSYAISWVRQAPGQGLEWMGHIIPHWGHARYAQKFQGRVTITADESTSTAYMELSSLRSEDTAVYYCARSASSLPHFHWFDYWGQGTLVTVSS VL: DIQMTQSPSSLSASVGDRVTITCRASQDINNYLNWYQQKPGKAPKLLIYAASRLQSGVPSRFSGSGSGTDFTLTISSLQPEDFATYYCQQRDTTPWTFGQGTKVEIKR" quantity_measured="log10 Kd" endpoint_result=-1.49
binder="Antibody BMP9-9: MOR023796 (antibody, human IgG1, lambda, V domains shown, Fully human, phage display) VH: QVQLVQSGAEVKKPGSSVKVSCKASGGTFSDYAIHWVRQAPGQGLEWMGGIIPFFGTAYYAQKFQGRVTITADESTSTAYMELSSLRSEDTAVYYCARRIVSDSVAVQYRHAFDPWGQGTLVTVSS VL: QSVLTQPPSVSGAPGQRVTISCSGSSSNIGSNYVYWYQQLPGTAPKLLIYGNNNRPSGVPDRFSGSKSGTSASLAITGLQAEDEADYYCNAWDTKAYVWVFGGGTKLTVLG" quantity_measured="log10 Kd" endpoint_result=-0.36
binder="Antibody BMP9-5: AM1900 (antibody, human IgG1, kappa, V domains shown) VH: QVQLVQSGAEVKKPGASVKVSCKASGYTFTRYWMHWVRQAPGQGLEWMGEINPSQGGTNYNEKFKSRVTMTVDKSISTAYMELSRLRSDDTAVYYCAIGANYGGLVYWGQGTLVTVSS VL: EIVLTQSPATLSLSPGERATLSCRASESLDNYGISFMNWFQQKPGQAPRFLIYAASNQGSGIPARFSGSGSGTDFTLTISSLQPEDTAVYFCQQSKEVPRTFGGGTKVEIKR" quantity_measured="log10 Kd" endpoint_result=-1.27
